Consider the following Minimum inhibitory concentration, Ec FADDI-EC003 values measured on Enterobacter cloacae.
Positions of bridges follow the written chain, without caps; N, C: chain ends. Non-standard residues stand in square brackets, D forms with d. Residues, ends and D or L forms follow the SMILES beside them. *: point of attachment. X24 = Cc1ccc(C(=O)*)c(C)c1; dNva = CCC[C@@H](N)C(=O)O; Octanoyl = CCCCCCCC(=O)*; Dab = NCC[C@H](N)C(=O)O; Abu = CC[C@H](N)C(=O)O; Dap = NC[C@H](N)C(=O)O; Hexanoyl = CCCCCC(=O)*

# compound, measurement
measured = [
    ("CCCCCCCC(=O)N[C@@H](CN)C(=O)N[C@H](C(=O)N[C@H](CO)C(=O)N[C@H]1CCNC(=O)[C@H]([C@@H](C)O)NC(=O)[C@H](CCN)NC(=O)[C@H](CCN)NC(=O)[C@H]([C@@H](C)O)NC(=O)[C@@H](CC(C)C)NC(=O)[C@H](CCN)NC1=O)[C@@H](C)O [Compound 13] (Octanoyl-[Dap]T[dS][Dab][Dab][dL]T[Dab][Dab]T; lactam 4-C)", "0.25 µg/mL"),
    ("CCCCCCCC(=O)N[C@@H](CN)C(=O)N[C@H](C(=O)N[C@@H](CN)C(=O)N[C@H]1CCNC(=O)[C@H]([C@@H](C)O)NC(=O)[C@H](CCN)NC(=O)[C@H](CCN)NC(=O)[C@H]([C@@H](C)O)NC(=O)[C@@H](CC(C)C)NC(=O)[C@H](CCN)NC1=O)[C@@H](C)O [Compound 48] (Octanoyl-[Dap]T[Dap][Dab][Dab][dL]T[Dab][Dab]T; lactam 4-C)", "<0.125 µg/mL"),
    ("CCCCCCCC(=O)N[C@@H](CCN)C(=O)N[C@H](C(=O)N[C@@H](CN)C(=O)N[C@H]1CCNC(=O)[C@H]([C@@H](C)O)NC(=O)[C@H](CCN)NC(=O)[C@H](CCN)NC(=O)[C@H](CC)NC(=O)[C@@H](CCC)NC(=O)[C@H](CCN)NC1=O)[C@@H](C)O [Compound 69] (Octanoyl-[Dab]T[Dap][Dab][Dab][dNva][Abu][Dab][Dab]T; lactam 4-C)", "<0.125 µg/mL"),
    ("CCCCCC(=O)N[C@@H](CCN)C(=O)N[C@H](C(=O)N[C@@H](CN)C(=O)N[C@H]1CCNC(=O)[C@H]([C@@H](C)O)NC(=O)[C@H](CCN)NC(=O)[C@H](CCN)NC(=O)[C@H](CC)NC(=O)[C@@H](CC(C)C)NC(=O)[C@H](CCN)NC1=O)[C@@H](C)O [Compound 68] (Hexanoyl-[Dab]T[Dap][Dab][Dab][dL][Abu][Dab][Dab]T; lactam 4-C)", "<0.125 µg/mL"),
    ("CCCCCCCC(=O)N[C@@H](CCN)C(=O)N[C@H](C(=O)N[C@@H](CCN)C(=O)N[C@H]1CCNC(=O)[C@H]([C@@H](C)O)NC(=O)[C@H](CCN)NC(=O)[C@H](CCN)NC(=O)[C@H]([C@@H](C)O)NC(=O)[C@@H](Cc2ccccc2)NC(=O)[C@H](CCN)NC1=O)[C@@H](C)O [Compound 22] (Octanoyl-[Dab]T[Dab][Dab][Dab][dF]T[Dab][Dab]T; lactam 4-C)", "<0.125 µg/mL"),
    ("CCCCCCCC(=O)N[C@@H](CCN)C(=O)N[C@H](C(=O)N[C@H](CO)C(=O)N[C@H]1CCNC(=O)[C@H]([C@@H](C)O)NC(=O)[C@H](CCN)NC(=O)[C@H](CCN)NC(=O)[C@H](C)NC(=O)[C@@H](CC(C)C)NC(=O)[C@H](CCN)NC1=O)[C@@H](C)O [Compound 2] (Octanoyl-[Dab]T[dS][Dab][Dab][dL]A[Dab][Dab]T; lactam 4-C)", "<0.125 µg/mL"),
]

Need Minimum inhibitory concentration, Ec FADDI-EC003, item CCCCCCCC(=O)N[C@@H](CCN)C(=O)N[C@H](C(=O)N[C@@H](C(=O)N[C@H]1CCNC(=O)[C@H]([C@@H](C)O)NC(=O)[C@H](CCN)NC(=O)[C@H](CCN)NC(=O)[C@H]([C@@H](C)O)NC(=O)[C@@H](CC(C)C)NC(=O)[C@H](CCN)NC1=O)[C@H](C)O)[C@@H](C)O [Compound 15] (Octanoyl-[Dab]T[dT][Dab][Dab][dL]T[Dab][Dab]T; lactam 4-C) 2 µg/mL

Give its Minimum inhibitory concentration, Ec FADDI-EC003 value. Item: CC[C@@H]1NC(=O)[C@@H](CC(C)C)NC(=O)[C@H](CCN)NC(=O)[C@@H](NC(=O)[C@H](CN)NC(=O)[C@@H](NC(=O)[C@H](CCN)NC(=O)c2ccc(C)cc2C)[C@@H](C)O)CCNC(=O)[C@H]([C@@H](C)O)NC(=O)[C@H](CCN)NC(=O)[C@H](CCN)NC1=O [Compound 89] (X24-[Dab]T[Dap][Dab][Dab][dL][Abu][Dab][Dab]T; lactam 4-C) <0.125 µg/mL
